assay: in vitro; details: mouse, liver microsomes
Field 'label' (enum: criterion met / criterion not met). Set to criterion met when remaining at 10 min, 0.5 µM is strictly under 90%; else criterion not met.

O=C(O)c1c(O)c(Cl)cc2cc(CNC(=O)c3cnn4cccnc34)oc12 = criterion not met
CCn1nc(C)cc1C(=O)Nc1nc2cc(C(N)=O)cc(OC)c2n1C/C=C/Cn1c(NC(=O)c2cc(C)nn2CC)nc2cc(C(N)=O)cc(OCCCN3CCOCC3)c21 = criterion not met
COC(=O)c1cccc2cc(CN3Cc4ccncc4C3=O)oc12 = criterion met
O=C(O)c1cccc2cc(CNC(=O)c3cnn4cccnc34)oc12 = criterion not met
O=C(O)c1ccc2cc(CNC(=O)c3cnn4cccnc34)oc2c1 = criterion not met

Please let me know if Cn1c(CNC(=O)c2cnn3cccnc23)nc2c(C(=O)O)cccc21 shows remaining at 10 min, 0.5 µM below 90%.
criterion met

Please let me know if O=C(O)c1cc(Cl)cc2cc(CNC(=O)c3cnn4cccnc34)oc12 shows remaining at 10 min, 0.5 µM below 90%.
criterion not met

Please let me know if O=C(O)c1cccc2c(Cl)c(CNC(=O)c3cnn4cccnc34)oc12 shows remaining at 10 min, 0.5 µM below 90%.
criterion met

Please let me know if O=C(NCc1cc2cc(Cl)c3oc(=O)[nH]c(=O)c3c2o1)c1cnn2cccnc12 shows remaining at 10 min, 0.5 µM below 90%.
criterion met

Please let me know if O=C(O)c1cccc2cc(Cn3ccc4ccncc4c3=O)oc12 shows remaining at 10 min, 0.5 µM below 90%.
criterion not met

Please let me know if C[C@H](NC(=O)c1cnn2cccnc12)c1cc2cc(Cl)cc(C(=O)O)c2o1 shows remaining at 10 min, 0.5 µM below 90%.
criterion not met

Please let me know if O=C(NCc1cc2cc(Cl)cc(-c3nn[nH]n3)c2o1)c1cnn2cccnc12 shows remaining at 10 min, 0.5 µM below 90%.
criterion met

Please let me know if O=C(NCc1cc2cc(Cl)cc(C(=O)O)c2o1)c1cncc2cccnc12 shows remaining at 10 min, 0.5 µM below 90%.
criterion met

* * *

assay: in vitro; conditions: human, liver microsomes
measured_metric: remaining at 10 min, 0.5 µM (%)
State the answer as a number, implicitly in %.

Return value of remaining at 10 min, 0.5 µM for input COC(=O)c1cccc2cc(CN3Cc4ccncc4C3=O)oc12 , no commentary.
0

* * *

experiment: in vitro; conditions: rat, liver microsomes
Overview of reported remaining at 10 min, 0.5 µM across a group of compounds:
State the answer as a number, implicitly in %.

Consider the worked cases shown below.
O=C(O)c1cccc2cc(CNC(=O)c3cnn4cccnc34)oc12 = 96
CCn1nc(C)cc1C(=O)Nc1nc2cc(C(N)=O)cc(OC)c2n1C/C=C/Cn1c(NC(=O)c2cc(C)nn2CC)nc2cc(C(N)=O)cc(OCCCN3CCOCC3)c21 = 81
O=C(O)c1ccc2cc(CNC(=O)c3cnn4cccnc34)oc2c1 = 100
O=C(NCc1cc2cc(Cl)cc(C(=O)O)c2o1)c1cncc2cccnc12 = 64

Return value of remaining at 10 min, 0.5 µM for input O=C(O)c1cccc2cc(Cn3ccc4ccncc4c3=O)oc12 , no commentary.
100

* * *

assay: in vitro; conditions: mouse, liver microsomes
measured_metric: remaining at 10 min, 0.5 µM (%)
State the answer as a number, implicitly in %.

Consider the worked cases shown below.
O=C(O)c1ccc2oc(CNC(=O)c3cnn4cccnc34)cc2c1 = 88
O=C(O)c1c(F)ccc2cc(CNC(=O)c3cnn4cccnc34)oc12 = 92

Now for a further compound.
Return value of remaining at 10 min, 0.5 µM for input Cc1ccc2c(=O)c3cccc(CC(=O)O)c3oc2c1C , no commentary.
89

* * *

Overview of reported remaining at 10 min, 0.5 µM across a group of molecules:
test: in vitro; conditions: human, liver microsomes
State the answer as a number, implicitly in %.

Consider the worked cases shown below.
O=C(O)c1cccc2cc(CNC(=O)c3cnn4cccnc34)oc12 = 94
CCn1nc(C)cc1C(=O)Nc1nc2cc(C(N)=O)cc(OC)c2n1C/C=C/Cn1c(NC(=O)c2cc(C)nn2CC)nc2cc(C(N)=O)cc(OCCCN3CCOCC3)c21 = 22
Cn1c(CNC(=O)c2cnn3cccnc23)nc2c(C(=O)O)cccc21 = 95
O=C(NCc1cc2cc(Cl)c3oc(=O)[nH]c(=O)c3c2o1)c1cnn2cccnc12 = 54
O=C(O)c1ccc2oc(CNC(=O)c3cnn4cccnc34)cc2c1 = 100

Return value of remaining at 10 min, 0.5 µM for input O=C(O)c1ccc2cc(CNC(=O)c3cnn4cccnc34)oc2c1 , no commentary.
100

Return value of remaining at 10 min, 0.5 µM for input O=C(O)c1cccc2c(Cl)c(CNC(=O)c3cnn4cccnc34)oc12 , no commentary.
99

Return value of remaining at 10 min, 0.5 µM for input O=C(O)c1c(F)ccc2cc(CNC(=O)c3cnn4cccnc34)oc12 , no commentary.
98

Return value of remaining at 10 min, 0.5 µM for input O=C(NCc1cc2cc(Cl)cc(-c3nn[nH]n3)c2o1)c1cnn2cccnc12 , no commentary.
96

* * *

test: in vitro; conditions: human, liver microsomes
Overview of reported remaining at 10 min, 0.5 µM across a group of molecules:

O=C(O)c1cccc2cc(Cn3ccc4ccncc4c3=O)oc12 = 98%
O=C(O)c1cc(Cl)cc2cc(CNC(=O)c3cnn4cccnc34)oc12 = 100%
O=C(NCc1cc2cc(Cl)cc(C(=O)O)c2o1)c1cncc2cccnc12 = 92%
Cc1ccc2c(=O)c3cccc(CC(=O)O)c3oc2c1C = 100%
O=C(O)c1c(O)c(Cl)cc2cc(CNC(=O)c3cnn4cccnc34)oc12 = 98%

Return value of remaining at 10 min, 0.5 µM for input C[C@H](NC(=O)c1cnn2cccnc12)c1cc2cc(Cl)cc(C(=O)O)c2o1 , no commentary.
100%

meta.source: ChEMBL document CHEMBL5042542
